System: peptide specific human CTL
protocol_text: Human CTL induction assay (IFN-γ ELISPOT)
Format: cell-based
condition_set: positive donors / donors examined
quantity: Donor positive percentage (%)
Give bare numbers, in %.

Consider the reported Donor positive percentage for these sequences:
- RALRWEYGSV [PSF1-derived peptide, initiating amino acid no; 88]: 60
- SLYIEVRCL [PSF1-derived peptide, initiating amino acid no; 145]: 100
- GDEGLDITQDMKP [PSF1-derived peptide, initiating amino acid number 130]: 0

Respectfully, I request Donor positive percentage for each entry included below.
1. EMKALYEQN [PSF1-derived peptide, initiating amino acid number 35]
2. ALRWEYGSVL [PSF1-derived peptide, initiating amino acid no; 89]
3. LPAFNEDGLRQV [PSF1-derived peptide, initiating amino acid number 21]

13
100
0
